- Organism: Rattus norvegicus
- TEST PROTOCOL: Relative affinity for rat androgen receptor(AR) and progesterone receptor(PgR)
Consider the following compounds; for each one, report its RBA ratio.
One number for each entry.

Sample records with RBA ratio:
C[C@]12CC[C@H]3[C@@H](CCC4CC(=O)CC[C@@]43C)[C@@H]1C[C@@H](F)[C@@H]2O (stereo partly specified) :: 56.1
C[C@@H]1CC2=CC(=O)CC[C@@H]2C2CC[C@@]3(C)C(CC[C@@H]3O)C21 (stereo partly specified) :: 42.1
C[C@@H]1CC2=CC(=O)CC[C@@H]2C2CC[C@@]3(C)C(CC[C@@]3(O)CF)C21 (stereo partly specified) :: 5.2

Kindly give each listed record's RBA ratio.
1. C[C@]12C=CC3=C4CCC(=O)C=C4CCC3C1CC[C@@]2(O)CF (stereo partly specified)
2. C[C@@H]1CC2=CC(=O)CC[C@@H]2C2CC[C@@]3(C)C(C[C@H](F)[C@@H]3O)C21 (stereo partly specified)
3. C[C@]1(O)CC[C@H]2[C@@H]3CCC4=CC(=O)CCC4=C3C=C[C@@]21C
4. C[C@@H]1CC2=CC(=O)CC[C@@H]2C2CC[C@@]3(C)C(CC[C@]3(C)O)C21 (stereo partly specified)
5. C[C@]12CC[C@H]3[C@@H](CCC4CC(=O)CC[C@@]43C)[C@@H]1C[C@H](F)[C@@H]2O (stereo partly specified)
6. C[C@@H]1CC2=CC(=O)CC[C@@H]2C2CC[C@@]3(C)C(C[C@H](F)[C@]3(C)O)C21 (stereo partly specified)

1. 1.8
2. 23.4
3. 2.3
4. 5.8
5. 356
6. 10.3

For every record below, what is its RBA ratio?
1. C[C@@H]1CC2=CC(=O)CC[C@@H]2C2CC[C@@]3(C)C(C[C@@H](F)[C@]3(C)O)C21 (stereo partly specified)
2. C[C@@H]1CC2=CC(=O)CC[C@@H]2C2CC[C@@]3(C)C(C[C@@H](F)[C@@H]3O)C21 (stereo partly specified)

1. 2.6
2. 3.8

meta.source: ChEMBL document CHEMBL1126069
